TEST DESCRIPTION: Solubility of different optical brighteners in GLYMO, heated mixing (MM2)
Assay type: physicochemical
MEASUREMENT CONDITIONS: in GLYMO, heated mixing 50° C. (MM2)
MEASURE NAME: # of particles observed MM2

mol_smiles=O=S(=O)(O)c1ccccc1C=Cc1ccc(-c2ccc(C=Cc3ccccc3S(=O)(=O)O)cc2)cc1 result=>100
mol_smiles=CC(C)(C)c1ccc2oc(-c3ccc(-c4nc5cc(C(C)(C)C)ccc5o4)s3)nc2c1 result=zero
mol_smiles=CCN(CC)c1nc(Nc2ccc(C=Cc3ccc(Nc4nc(Nc5cc(S(=O)(=O)[O-])ccc5S(=O)(=O)[O-])nc(N(CC)CC)n4)cc3S(=O)(=O)[O-])c(S(=O)(=O)[O-])c2)nc(Nc2cc(S(=O)(=O)[O-])ccc2S(=O)(=O)[O-])n1.[Na+].[Na+].[Na+].[Na+].[Na+].[Na+] result=10-20
mol_smiles=C(=Cc1ccc(-c2nc3ccccc3o2)cc1)c1ccc(-c2nc3ccccc3o2)cc1 result=>300
